- System: U373 (human glioblastoma)
- protocol text: Test on cell proliferation (MTT test), U373
- Format: cell-based
- experimental setup: 0.1 nM, 72 hours
Labelling field: enter Criterion met if recorded PERCENTAGE OF CELL PROLIFERATION is less than 90%. Enter Criterion not met if it equals or exceeds that cut-off.

**Query** Just wondering, is PERCENTAGE OF CELL PROLIFERATION of CCC(O)(CC(=O)O)c1cc2n(c(=O)c1CO)Cc1cc3ccccc3nc1-2 (centres unmarked) below 90%?
**Result** Criterion met

**Query** Answer whether the compound CCC1(O)CC(=O)OCc2c1cc1n(c2=O)Cc2cc3ccccc3nc2-1 (centres unmarked) has PERCENTAGE OF CELL PROLIFERATION strictly less than 90%
**Result** Criterion not met

**Query** Please let me know if CCc1c2c(nc3ccccc13)-c1cc(C(O)(CC)CC(=O)O)c(CO)c(=O)n1C2 (centres unmarked) shows PERCENTAGE OF CELL PROLIFERATION below 90%.
**Result** Criterion not met

**Query** PERCENTAGE OF CELL PROLIFERATION under 90%? Item: CCC1(O)CC(=O)OCc2c1cc1n(c2=O)Cc2cc3cc4c(cc3nc2-1)OCCO4 (centres unmarked)
**Result** Criterion met
